Tested on: Staphylococcus aureus (Isolate ID ATCC 29213)
Assay: Bacterial assay: MIC by broth microdilution or agar dilution (CLSI), S. aureus ATCC 29213
Assay type: cell-based
Conditions: Staphylococcus aureus, ATCC29213, read-out: S. aureus MIC (μg/mL) Activity Range, S. aureus (ATCC29213)
readout name: MIC

>>> df
                                   compound       meas_value
0  NC(=O)c1c(F)ccc(OC(c2cccnc2)c2nc(-c3ccc(Cl)cc3)c(Br)o2)c1F (centres unmarked)    1 to 16 µg/mL
1  NC(=O)c1c(F)ccc(OC(CNC(=O)c2ccccc2)c2nc(-c3ccc(C(F)(F)F)cc3)c(Br)o2)c1F (centres unmarked)     < 0.25 µg/mL
2  CCCc1oc(C(CO)Oc2ccc(F)c(C(N)=O)c2F)nc1-c1ccc(C(F)(F)F)cc1 (centres unmarked)    1 to 16 µg/mL
3  NC(=O)c1c(F)ccc(O[C@H](CO)c2nc(-c3ccc(F)cc3F)c(Br)o2)c1F [Compound 233B]     < 0.25 µg/mL
4  CN(Cc1ccncc1)C(=O)OCC(Oc1ccc(F)c(C(N)=O)c1F)c1nc(-c2ccc(C(F)(F)F)cc2)c(Br)o1 (centres unmarked)  0.25 to 1 µg/mL
5  COc1ccc(-c2nc(C(CO)Oc3ccc(F)c(C(N)=O)c3F)oc2Br)cc1 (centres unmarked)    1 to 16 µg/mL

Please report MIC for every entry that follows.
1. COc1cc(Cl)ccc1-c1coc(C(CO)Oc2ccc(F)c(C(N)=O)c2F)n1 (centres unmarked)
2. CCNC(=O)NCC(Oc1ccc(F)c(C(N)=O)c1F)c1nc(-c2ccc(C(F)(F)F)cc2)co1 (centres unmarked)
3. CCOC(=O)C(CC(Oc1ccc(F)c(C(N)=O)c1F)c1nc(-c2ccc(C(F)(F)F)cc2)c(Br)o1)C(=O)OCC (centres unmarked)
4. CC(=O)OCCCC(Oc1ccc(F)c(C(N)=O)c1F)c1nc(-c2ccc(C(F)(F)F)cc2)c(Br)o1 (centres unmarked)
5. COc1ccc(-c2nc([C@@H](C)Oc3ccc(F)c(C(N)=O)c3F)oc2Br)cc1

a:
1: > 16 µg/mL; 2: > 16 µg/mL; 3: > 16 µg/mL; 4: 0.25 to 1 µg/mL; 5: 0.25 to 1 µg/mL

These measurements were taken from patent US9511073B2.
